test system: MS2 coat protein; experiment: apparent KD of MS2 coat protein; higher = weaker reporter binding; details: Eterna round: R107; input ligand: arginine 13.2 mM

>  <macromolecule.sequence>
UGUAUGGACUGAAGGAGCGGGUUGAUAACAUGAGGAUCACCCAUGUAAAAGGCGAAAGCCGCCCAGGUAGGUCGCAGUCCAUACU

>  <value.unit>
nM

>  <apparent KD of MS2 coat protein>
4.19

$$$$
>  <macromolecule.sequence>
CAAGACAUGAGGAUCACCCAUGUGGUGUACCGAGGACCGGUACGGCCGCCACUCGUUCAUCGGUCGACAAGCUACCCUUCAAGGU [theeternabot_sameState_MS2_Trp_A_7]

>  <value.unit>
nM

>  <apparent KD of MS2 coat protein>
25.5

$$$$
>  <macromolecule.sequence>
GUACAUGAGGAUCACCCAUGUAUAGUUGAAGGAGCGACCAGAGGGUCAGGUAGGUCGCAGCACAUGGUGUAAACCCGUGUAUGCC [#1 Exclusion - Arginine A Attempt #22 (Inspired by Pi)]

>  <value.unit>
nM

>  <apparent KD of MS2 coat protein>
29.6

$$$$
